Reported GI50 is given for each of the following compounds.
- System: HCT116 cells

>  <query.smiles>
CCONC(=O)c1ccc(C#N)cc1Nc1ccc(I)cc1F

>  <GI50>
0.75 to 2 µM

$$$$
>  <query.smiles>
CONC(=O)c1ccc(C#N)cc1Nc1ccc(I)cc1F

>  <GI50>
0.75 to 2 µM

$$$$
>  <query.smiles>
N#Cc1ccc(C(=O)NOCCO)c(Nc2ccc(I)cc2F)c1F

>  <GI50>
≤ 0.75 µM

$$$$
>  <query.smiles>
N#Cc1ccc(C(=O)NOCCO)c(Nc2ccc(I)cc2F)c1

>  <GI50>
≤ 0.75 µM

$$$$
>  <query.smiles>
N#Cc1ccc(C(=O)NOCC2CC2)c(Nc2ccc(I)cc2F)c1F

>  <GI50>
0.75 to 2 µM

$$$$

====

IC50 overview
- target.system: MEK1 (Homo sapiens (Human), UniProt Q02750)
- Sequence (Q02750 whole entry): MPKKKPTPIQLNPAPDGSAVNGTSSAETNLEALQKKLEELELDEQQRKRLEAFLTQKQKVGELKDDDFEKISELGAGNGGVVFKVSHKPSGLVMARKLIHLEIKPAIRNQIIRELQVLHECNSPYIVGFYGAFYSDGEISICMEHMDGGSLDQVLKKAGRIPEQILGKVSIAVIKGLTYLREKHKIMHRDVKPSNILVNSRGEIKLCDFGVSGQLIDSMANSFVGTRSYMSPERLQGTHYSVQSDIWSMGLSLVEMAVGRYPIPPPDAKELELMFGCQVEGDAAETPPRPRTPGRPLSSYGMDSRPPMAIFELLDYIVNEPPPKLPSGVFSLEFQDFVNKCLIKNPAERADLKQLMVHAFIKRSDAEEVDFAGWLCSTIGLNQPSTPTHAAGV
- test: MEK Inhibition Assay-2 (Z′-LYTE biochemical assay)
- protocol.conditions: Z′-LYTE assay of Example 39; read-out: IC50 against MEK1

>  <query.smiles>
N#Cc1ccc(C(=O)NOCC2CC2)c(Nc2ccc(I)cc2F)c1F

>  <IC50>
≤ 150 nM

$$$$
>  <query.smiles>
N#Cc1ccc(C(=O)NOCCO)c(Nc2ccc(I)cc2F)c1

>  <IC50>
≤ 150 nM

$$$$
>  <query.smiles>
N#Cc1ccc(C(=O)NOCCO)c(Nc2ccc(I)cc2F)c1F

>  <IC50>
≤ 150 nM

$$$$
>  <query.smiles>
N#Cc1ccc(C(=O)NO)c(Nc2ccc(I)cc2F)c1

>  <IC50>
≤ 150 nM

$$$$
>  <query.smiles>
N#Cc1ccc(C(=O)NC2CC2)c(Nc2ccc(I)cc2F)c1

>  <IC50>
> 1500 nM

$$$$
>  <query.smiles>
COC(=O)CCONC(=O)c1ccc(C#N)cc1Nc1ccc(I)cc1F

>  <IC50>
> 1500 nM

$$$$

====

- test: Liver S9 half-life stability assay
- Format: in vitro ADME
- protocol.conditions: human, liver S9 fraction, pH 7.4; 1 μM test compound, 2 mg/mL liver protein, 1 mM NADPH; read-out: Assay 4: liver S9 half-life
reported.property: half-life at 1 μM

>  <query.smiles>
CCCONC(=O)c1ccc(C#N)cc1Nc1ccc(I)cc1F

>  <recorded.value>
≤ 50 min

$$$$
>  <query.smiles>
CONC(=O)c1ccc(C#N)cc1Nc1ccc(I)cc1F

>  <recorded.value>
≤ 50 min

$$$$
>  <query.smiles>
N#Cc1ccc(C(=O)NOCCO)c(Nc2ccc(I)cc2F)c1F

>  <recorded.value>
50 to 200 min

$$$$
>  <query.smiles>
N#Cc1ccc(C(=O)NOCCO)c(Nc2ccc(I)cc2F)c1

>  <recorded.value>
50 to 200 min

$$$$
>  <query.smiles>
CCONC(=O)c1ccc(C#N)cc1Nc1ccc(I)cc1F

>  <recorded.value>
≤ 50 min

$$$$
>  <query.smiles>
N#Cc1ccc(C(=O)NOCC2CC2)c(Nc2ccc(I)cc2F)c1F

>  <recorded.value>
≤ 50 min

$$$$
